Test system: Lolium multiflorum
Test name: Greenhouse trial, post-emergence herbicidal efficacy against Lolium multiflorum
Format: in vivo
Settings: scoring 14 days after application, g of ai/ha: A1.1 100, B1.1 5, C10 5, C11 15, combinations at the same rates
Method: The trials were carried out under greenhouse conditions (test pots, diameter 8 cm, spray application using 300 l of water/hectare, 2 repetitions, 6 to 8 plants per pot). Application was by post-emergence treatment; the species of the harmful plants and their stage of growth at the time of treatment are, indicated in the individual results tables. The application rates of the herbicidally active compounds used on their own or in combinations are likewise listed in the individual results tables. […]
Below, each entry is listed alongside its reported Herbicidal efficacy % Lolium multiflorum.
Result type: Herbicidal efficacy % Lolium multiflorum (%)

# Compound, Result type, Quantitative result
records = [
    ("CP(=O)(O)CCC(N)C(=O)O (stereo not shown) [A1.1, glufosinate-ammonium]", "Herbicidal efficacy % Lolium multiflorum", 20),
    ("COC(=O)c1nc(-c2ccc(Cl)c(OC)c2F)cc(N)c1Cl", "Herbicidal efficacy % Lolium multiflorum", 0),
    ("CCSC(C)CC1CC(=O)C(/C(CC)=N/OC/C=C/Cl)=C(O)C1 (stereo not shown)", "Herbicidal efficacy % Lolium multiflorum", 50),
    ("CCCC(=NOCC)C1=C(O)CC(C2CCCSC2)CC1=O (stereo not shown)", "Herbicidal efficacy % Lolium multiflorum", 70),
]

* * *

Listed next: entries and their corresponding Damage to crop plants (%) oilseed rape (GA-tolerant) (≦15-20% acceptable).
Tested on: oilseed rape (GA-tolerant)
Test name: Greenhouse trial, crop plant compatibility in oilseed rape (GA-tolerant)
Type: in vivo
Settings: Table 4, post-emergence, 2-4 oilseed rape-leaf stage, scoring 14 days after application, g of ai/ha: A1.1 100, B1.1 5, C1 25, C2 100, C3 12.5, C4 2.5, C5 50, C6 125, C7 250, C8 250, C9 5, combinations at the same rates, (75)* = selective only in IMI × GA tolerant crop plants
Result type: Damage to crop plants (%) oilseed rape (GA-tolerant) (≦15-20% acceptable)

# Compound, Output unit, Quantitative result
rows = [
    ("CP(=O)(O)CCC(N)C(=O)O (stereo not shown) [A1.1, glufosinate-ammonium]", "%", 10),
    ("CCOC(=O)[C@@H](C)Oc1ccc(Oc2nc3ccc(Cl)cc3o2)cc1 [C3, fenoxaprop-P-ethyl]", "%", 15),
    ("Cc1cccc(C)c1N(Cn1cccn1)C(=O)CCl [C5, metazachlor]", "%", 0),
    ("CCCN(CCC)c1c([N+](=O)[O-])cc(C(F)(F)F)cc1[N+](=O)[O-] [C8, trifluralin]", "%", 0),
    ("O=C(O)c1nc(Cl)ccc1Cl [C1, clopyralid]", "%", 0),
    ("CCCCCCCCSC(=O)Oc1cc(Cl)nnc1-c1ccccc1 [C7, pyridate]", "%", 0),
]
